Experiment: NCI Yeast Anticancer Drug Screen. Data for the rad50 strain (AID 155);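 also: 0% = growth of vehicle-only cultures of the same strain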
Settings: S. cerevisiae rad50 strain growth inhibition; at 50.0 µM; hits give high values
The panel holds about 79,000 compounds, 15% with a hit somewhere; the sample as a whole holds those more often.
assay.endpoint: growth inhibition (%)

| compound | reported.measurement |
| --- | --- |
| c1ccc2sc(SNC3CCCCC3)nc2c1 | -29.7 |
| CS/C([S-])=N/N=C\c1ccccn1.CS/C([S-])=N/N=C\c1ccccn1.[Ni+2] | 14.7 |
| Cc1ccc(N=C2OP(=O)(Nc3ccc(C)cc3)Oc3ccccc32)cc1 (centres undefined) | -11.3 |
| CC(=O)C(N)Cc1ccccc1 (centres undefined) | 24.4 |
| c1ccc2c(c1)c1ccccc1c1n[se]nc21 | -4.7 |
| N#CN | -9.55 |
| CC(C)/C=C/C1(C(C)C)C(=O)NC(=O)NC1=O | 19.5 |
| CC(=O)OC1OC(CS[As](C)C)C(OC(C)=O)C(OC(C)=O)C1OC(C)=O (centres undefined) | 58.6 |
| COc1ccc(C(=O)O)cc1[N+](=O)[O-] (tested in a mixture with another compound) | 9.25 |
| C1CC[N-]CC1.C1CC[N-]CC1.[Cl][Pt+2]([Cl])([Cl])[Cl] | 4.65 |
| C[C@]12CC[C@H]3[C@@H](CCC4=C[C@@H](OC5OCC(OC6OC(CO)C(O)C(O)C6O)C(O)C5O)CC[C@@]43C=O)[C@@]1(O)CCC2C1=CC(=O)OC1 (some centres undefined) | -31.8 |
| O=C1NCC2C3CCC(O3)C12 (centres undefined) | -6.3 |
| N.N.N.N.N.NC(=O)[O-].[Co+3].[I-] | -14.1 |
| c1ccc(N2CCNCC2)cc1 | -11.3 |
| COc1ccc2c(c[n+](C)c3c4cc5c(cc4ccc23)OCO5)c1OC | 0.2 |
| O=C1OC[C@@H]2Cc3c([nH]c4ccccc34)[C@@H](c3cc(O)c(O)c(O)c3)N12 | 12.1 |
| OCCSCSCCO | -5.8 |
| CC(CO)([N+](=O)[O-])[N+](=O)[O-] | 7.45 |
| CCN(CC)CCN(CC)CC.CCN(CC)CCN(CC)CC.[Cu+2].[Cu+2].[O-][Cl+3]([O-])([O-])[O-].[OH3+].[OH3+] | -2.85 |

* * *

Test: NCI Yeast Anticancer Drug Screen. Data for the mec2-1 strain (AID 157)
Settings: S. cerevisiae mec2-1 strain, at 50.0 µM, hits give high values
This is part of a sample that, as a whole, favours compounds with a hit. Of some 79,000 tested, about 15% had one in any assay.
Items are presented alongside their recorded growth inhibition.
assay.endpoint: growth inhibition (%)

| compound | reported.measurement |
| --- | --- |
| Oc1ccc(CC2NCCc3cc(O)c(O)cc32)cc1O (stereo unspecified) | -4.15 |
| COc1cc(C2c3cc4c(cc3C(O)[C@H]3COC(=O)[C@@H]23)OCO4)cc(OC)c1O (stereo partly specified) | -28.7 |
| O=[As](O)(O)c1ccc(N=Nc2ccccc2)cc1 | -14.2 |
| C(=NCCN1CCOCC1)=NC1CCCCC1 | -3.25 |
| c1ccc2c(c1)ccc1sc3c([n+]12)CCC3 | -5.65 |
| CC1C2C=CC1C(c1c3ccc(=O)cc-3oc3cc(O)ccc13)C2C(=O)O (stereo unspecified) | 2.15 |
| Cc1nc2ccccc2c(=O)n1-c1ccccc1F | -30.2 |
| NNC(N)=O | 23.1 |
| CC12CC/C(=N/NC(=O)Cc3c[nH]c4ccccc34)C=C1CCC1C2CCC2(C)C(OC(=O)c3ccccc3)CCC12 (stereo unspecified) | 28.6 |
| O=C(CF)Nc1ccc([N+](=O)[O-])cc1 | -7.25 |
| CCOP(=O)(CC(=O)c1cc2ccccc2[nH]1)OCC | 12.6 |

* * *

Items are presented alongside their recorded growth inhibition.
Experiment: NCI Yeast Anticancer Drug Screen. Data for the rad50 strain (AID 155);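 also: 0% = growth of vehicle-only cultures of the same strain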
Conditions: S. cerevisiae rad50 strain growth inhibition; at 50.0 µM; hits give high values
The panel holds about 79,000 compounds, 15% with a hit somewhere; the sample as a whole holds those more often. Where a SMILES comes first, the peptide text is derived from it. [ ]: non-standard residue; d: D form. ξ: configuration not given here. ξPhe(4-N(CH2CH2Cl)2) = NC(Cc1ccc(N(CCCl)CCCl)cc1)C(=O)O; Aad = N[CH](CCCC(=O)O)C(=O)O

| molecule | growth inhibition [%] |
| --- | --- |
| CCCCOP(=O)(OCCCC)Oc1ccc2ccccc2c1 | 93.1 |
| O=[N+]([O-])/C=C\c1c[nH]c2ccc(OCc3ccccc3)cc12 | 52.5 |
| NC(=O)Nc1ccc([As](O)O)cc1 | 11.3 |
| CCOC(=O)C(Cc1ccc(N(CCCl)CCCl)cc1)NC(=O)C(CCC(=O)O)NC(=O)C(Cc1ccc(O)cc1)NC(=O)C(CCCC(=O)O)NC(=O)C(N)Cc1ccc(O)cc1 (configuration not stated) (H-Y[Aad]YE[ξPhe(4-N(CH2CH2Cl)2)]-OEt; configuration not given here) | 7.7 |
| CC(NC(=O)c1c(O)[nH]c(=S)[nH]c1=O)c1ccc([N+](=O)[O-])cc1 (configuration not stated) | 17.9 |
| COc1ccc2c3c1OC1C(OC)(OC)C=C[C@@]4(Br)[C@@H](C2)N(CC2CC2)CC[C@]314 (some centres not stated) | 34.1 |
| CCCCOC(N)=O | -34.6 |

* * *

Experiment: NCI Yeast Anticancer Drug Screen. Data for the cln2 rad14 strain (AID 165);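 also: 0% = growth equal to vehicle treated cultures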
Settings: S. cerevisiae cln2 rad14 strain, at 50.0 µM, hits give high values
The panel holds about 79,000 compounds, 15% with a hit somewhere; the sample as a whole holds those more often.
Items are presented alongside their recorded growth inhibition.

| molecule | growth inhibition, % |
| --- | --- |
| CCCCCCCBr | 0.6 |
| CCCCCSP(SCCCCC)c1ccccc1 | 37.6 |
| O=N[O-].O=N[O-].[NH2-].[NH2-].[NH2-].[NH2-].[Ni] | -48.7 |
| CCC(=O)OC1(c2ccccc2)CCN(CCC(=O)c2ccccc2)CC1 | 19.2 |
| C[C@@H]1C[C@@H]2c3cccc4c3c(cn4CO)C[C@H]2N(C)C1 | 3.4 |
| CC1CS1 (stereo unspecified) | 2.9 |
| O=[P+](O)c1cccnc1 | 17.4 |
| COc1ccc(C2C=C(c3ccc4c(c3)OCO4)Oc3c2c(=O)oc2ccccc32)cc1OC (stereo unspecified) | 16.4 |
| O=S1(=O)OCCOS(=O)(=O)C1(Cl)Cl | -11.4 |
| CCCCC(C(=O)NN)P(=O)(OCC)OCC (stereo unspecified) | -14.7 |
| NC(N)=Nc1nn[nH]n1 | -0.85 |
| CC(C)CCC1C(=O)N(C)C(=O)N(C)C1=O | -0.5 |
| O=P(Nc1ccc2ccccc2c1)(Nc1ccc2ccccc2c1)N(CCCl)CCCl | 4.2 |
| c1ccc(-c2csc3[nH]c4ccccc4[n+]23)cc1 | 5.7 |
| Oc1ccc(CC2NCCc3cc(O)c(O)cc32)cc1O (stereo unspecified) | 24.3 |
| CC(=O)C(=[N+]=[N-])C(=O)N(C)CCC#N | 13.7 |
| COc1cccc(N2CCNCC2)c1 | 4.2 |
| CCC1CC[N-]CC1.CCC1CC[N-]CC1.CCC1CC[N-]CC1.CCC1CC[N-]CC1.N#C[S-].N#C[S-].[Co] | 15.3 |
| CC(=O)Cc1ccc2c(c1)OCO2 | 1.1 |
| C[C@]12CCC(=O)C[C@@H]1CC[C@@H]1[C@@H]2CC[C@]2(C)[C@@H]3OCCC[C@H]3C[C@@H]12 | 14.7 |
| Nc1nc(CC(N)C(=O)O)c[se]1 (stereo unspecified) | 5.35 |
| FC(F)(F)C(OP(OC(C(F)(F)F)C(F)(F)F)OC(C(F)(F)F)C(F)(F)F)C(F)(F)F | 1.55 |
| CCOP(=O)(OCC)Oc1ccc(SC)cc1 | -14.9 |
| COc1ccc2c(c1)C1(C)CCN(CCc3ccccc3)C(C2)C1C (stereo unspecified) | 0.05 |
| COC1C(OC(=O)/C=C/C=C/C=C/C=C\C(=O)O)CCC2(CO2)C1C1(C)OC1CC=C(C)C (stereo unspecified) | 0.95 |
| CN(C)c1ccc(C=O)cc1.[C-]#[O+].[C-]#[O+].[C-]#[O+].[Cr] | 1 |

* * *

Assay: NCI Yeast Anticancer Drug Screen. Data for the rad50 strain (AID 155);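 also: 0% = growth of vehicle-only cultures of the same strain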
Details: S. cerevisiae rad50 strain growth inhibition; at 50.0 µM; hits give high values
Compounds without any hit were thinned out: in the full panel of roughly 79,000, 15% have a hit.

| molecule | readout.units | growth inhibition |
| --- | --- | --- |
| CC(Cc1ccc(Cl)cc1Cl)NO (stereo unspecified) | % | 15.7 |
| N=C(N)n1cc(/C=N/N=C(N)N)cn1 | % | -4.4 |
| CC(=O)N(N=O)c1cc(Cl)ccc1Cl | % | -2.75 |
| CCOP(=O)(OCC)/C(C#N)=C/c1ccco1 | % | -2.55 |
| O=c1c2ccccc2[nH]c(=S)n1-c1cccc(Cl)c1 | % | 44.2 |
| C[N+]1(C)C2CC(O)CC1C1OC12 (stereo unspecified) | % | -4.35 |
| C[CH2][Pb]([CH2]C)([CH2]C)[N]1C(=O)c2c(Cl)c(Cl)c(Cl)c(Cl)c2C1=O | % | 67.7 |
| NCC(=O)c1ccc(O)c(O)c1 | % | -8.85 |
| Cn1c(O)c(C=N)c(=O)[nH]c1=O | % | -4 |
| Cc1nc2ccccc2c(=O)n1-c1ccccc1Cl | % | 7.15 |
| C=C(C(=C)P(=S)(C(C)C)C(C)C)P(=S)(C(C)C)C(C)C | % | -8.65 |

The measured values listed here are drawn from PubChem BioAssay (NCI).
